This collection of values is drawn from patent US6696461B2.

Assay endpoint: melting point

Measured melting point, CCO[C@@H]1c2c(COC)cn3c(C)c(C)nc3c2N[C@H](c2ccccc2)[C@H]1O : 184 to 186 °C (dec.)

Measured melting point, COCCO[C@@H]1c2c(COC)cn3c(C)c(C)nc3c2N[C@H](c2ccccc2)[C@H]1O : 158 to 160 °C

* * *

Listing of entries alongside the reported melting point.

>  <Smiles>
COCc1cn2c(C)c(C)nc2c2c1[C@H](O)[C@H](O)[C@@H](c1ccccc1)N2

>  <melting point>
182 to 183 °C (dec.)

$$$$
>  <Smiles>
COCCO[C@H]1c2c(COC)cn3c(C)c(C)nc3c2N[C@H](c2ccccc2)[C@H]1O

>  <melting point>
158 to 160 °C (dec.)

$$$$
>  <Smiles>
CCO[C@H]1c2c(COC)cn3c(C)c(C)nc3c2N[C@H](c2ccccc2)[C@H]1O

>  <melting point>
163 to 164 °C (dec.)

$$$$

Attention now shifts to the item below.
Measured melting point, COCc1cn2c(C)c(C)nc2c2c1[C@H](OC)[C@H](O)[C@@H](c1ccccc1)N2 : 126 to 129 °C (dec.)
